# Target Of Assay: Sirt5 (Homo sapiens, UniProt Q9NXA8)
# Construct: made in house
# Experiment Notes: Sirt5 deacetylation, demalonylation, desuccinylation kinetics on WW-tagged peptides by HPLC
# Assay type: biochemical
# Condition Summary: peptides with two C-terminal tryptophan residues, read-out: Peptide Km
*1 amine or outer side, *2 acyl side, *3 side chain or, on linkers, in order; H or OH if unused. Where no end group is shown, it is not given here. Malonyl = O=C(CC(=O)[*:2])[*:1]; Suc = O=C(CCC(=O)[*:2])[*:1]
Assign Km to each entry below.
Your answer should be a plain number; it is taken to be in µM.

Field Km (entry GDH K503 (498-509 + WW) malonyl peptide: GDH K503 malonyl peptide (498-509) with two C-terminal tryptophan residues (SGASEK(Malonyl)DIVHSGWW) ) reads 8.7

Field Km (entry GDH K503 (498-509 + WW) succinyl peptide: GDH K503 succinyl peptide (498-509) with two C-terminal tryptophan residues (SGASEK(Suc)DIVHSGWW) ) reads 14

----------
Target sequence: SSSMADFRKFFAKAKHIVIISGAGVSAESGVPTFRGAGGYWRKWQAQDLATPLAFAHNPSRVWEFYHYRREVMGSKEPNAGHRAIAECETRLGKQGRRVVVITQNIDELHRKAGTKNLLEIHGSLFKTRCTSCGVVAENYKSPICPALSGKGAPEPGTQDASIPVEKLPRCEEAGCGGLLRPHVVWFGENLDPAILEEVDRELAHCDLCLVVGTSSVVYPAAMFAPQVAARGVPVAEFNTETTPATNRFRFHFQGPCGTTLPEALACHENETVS
Metric: IC50

Field IC50 (entry N#C/C(=C\c1ccc(-c2cc(Cl)ccc2Cl)o1)C(=O)Nc1cccc2ncccc12 ) reads 120 µM
